- tgt: ER in T47D cells (Homo sapiens (Human), UniProt P03372)
- Sequence (P03372 whole entry): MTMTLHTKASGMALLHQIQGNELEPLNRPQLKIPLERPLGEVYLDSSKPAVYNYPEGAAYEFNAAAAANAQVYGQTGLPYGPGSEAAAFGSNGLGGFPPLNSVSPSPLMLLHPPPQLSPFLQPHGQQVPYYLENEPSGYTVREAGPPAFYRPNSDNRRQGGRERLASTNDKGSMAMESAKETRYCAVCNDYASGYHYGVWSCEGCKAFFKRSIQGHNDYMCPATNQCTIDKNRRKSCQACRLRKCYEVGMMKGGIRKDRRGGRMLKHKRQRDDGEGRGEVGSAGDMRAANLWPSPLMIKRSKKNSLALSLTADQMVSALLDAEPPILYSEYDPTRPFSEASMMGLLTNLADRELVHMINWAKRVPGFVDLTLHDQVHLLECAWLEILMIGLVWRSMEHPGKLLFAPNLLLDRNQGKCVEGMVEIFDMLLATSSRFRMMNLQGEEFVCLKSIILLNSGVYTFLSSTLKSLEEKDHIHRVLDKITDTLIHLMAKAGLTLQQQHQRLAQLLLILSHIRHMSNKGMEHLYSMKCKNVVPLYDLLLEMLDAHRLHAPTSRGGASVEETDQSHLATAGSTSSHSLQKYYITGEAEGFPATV
- test: In-cell western (ICW) ER degradation assay in T47D cells (Compounds A1-A70)
- Type: cell-based
- assayContext: ER degradation, T47D cells, 16 hrs treatment, 0.02 to 300 nM
metricName: DC50

COc1cc(N2CCC3(CCN(C(=O)CN4Cc5cc6c(cc5C4)C(=O)N(C4CCC(=O)NC4=O)C6=O)CC3)CC2)ccc1[C@@H]1c2[nH]c3ccccc3c2C[C@@H](C)N1CC(F)F (stereo partly drawn) | < 1 nM

q: Provide the documented DC50 with ER in T47D cells (Homo sapiens (Human), UniProt P03372) as the system for `COc1cc(N2CCC(CN3CCN4c5cc6c(cc5OC[C@H]4C3)C(=O)N([C@@H]3CCC(=O)NC3=O)C6)CC2)ccc1[C@@H]1c2[nH]c3ccccc3c2C[C@@H](C)N1CC(F)F`
a: < 1 nM

q: Provide the documented DC50 with ER in T47D cells (Homo sapiens (Human), UniProt P03372) as the system for `C[C@H]1Cc2c([nH]c3ccccc23)[C@H](c2cnc(N3CCC4(CC3)C[C@@H](CN3CCC(c5ccc(N[C@@H]6CCC(=O)NC6=O)cc5)CC3)CO4)nc2)N1CC(F)F`
a: 1 to 10 nM

---

Reported IC50 values follow for various compounds
- test: Cell growth assay (WST-8) (Compounds B1-B278)
- Format: cell-based
- assayContext: 96 h; T47D cell line; WST-8, 4 days; read-out: Cell Growth Inhibition in T47D cell line IC50

Known IC50 results, listed for orientation:
C[C@@H]1Cc2c([nH]c3ccccc23)[C@@H](c2cnc(N3CC4(CCC(CN5CCN6c7ccc8c(c7OC[C@@H]6C5)CN(C5CCC(=O)NC5=O)C8=O)CC4)C3)nc2)N1CC(F)F (some centres unmarked) | 1 to 10 nM
C[C@@H]1Cc2c([nH]c3ccccc23)[C@@H](c2cnc(N3CCC(CCN4CCN5c6ccc7c(c6OC[C@H]5C4)CN(C4CCC(=O)NC4=O)C7=O)CC3)nc2)N1CC(F)(F)CO (some centres unmarked) | > 10 nM
COc1cc(N2CC3(CCC(CN4CCN5c6ccc7c(c6OC[C@H]5C4)CN(C4CCC(=O)NC4=O)C7=O)CO3)C2)ccc1[C@@H]1c2[nH]c3ccccc3c2C[C@@H](C)N1CC(F)F (some centres unmarked) | 1 to 10 nM

q: Please look up its IC50: C[C@@H]1Cc2c([nH]c3ccccc23)[C@@H](c2cnc(N3CCC4(CC3)CC(CN3CCN5c6cc7c(cc6OC[C@@H]5C3)C(=O)N(C3CCC(=O)NC3=O)C7)C4)nc2)N1CC(F)F (some centres unmarked)
a: 1 to 10 nM

q: Please look up its IC50: C[C@@H]1Cc2c([nH]c3ccccc23)[C@@H](c2ccc(N3CCC4(CC3)CC(CN3CCN5c6ccc7c(c6OC[C@H]5C3)CN(C3CCC(=O)NC3=O)C7=O)C4)nc2)N1CC(F)F (some centres unmarked)
a: 1 to 10 nM

---

- tgt: ER (Homo sapiens (Human))
- Sequence (P03372 whole entry): as above
- test: Western blot analysis (Compounds B1-B278)
- Type: cell-based
- assayContext: ER degradation by traditional Western blot; DC50 classes
- Source text: Western Blot Analysis. […] The blots are scanned, and the band intensities are quantified (e.g., by using GelQuant.NET software provided by biochemlabsolutions.com). […] Western Blot Analysis. […] The blots were scanned, and the band intensities were quantified using GelQuant.NET software provided by biochemlabsolutions.com. […]
metricName: Traditional Western Degradation Potency

C[C@@H]1Cc2c([nH]c3ccccc23)[C@@H](c2c(F)cc(N3CCC4(CC3)CC(C(=O)N3CCC(N5Cc6cc7c(cc6C5)C(=O)N(C5CCC(=O)NC5=O)C7=O)CC3)C4)cc2F)N1CC(F)F (stereo partly shown) [Compound B40] | A (“A”: <10 nM)
C[C@@H]1Cc2c([nH]c3ccccc23)[C@@H](c2ccc(C3CCC4(CC3)CCN(C(=O)CN3Cc5cc6c(cc5C3)C(=O)N(C3CCC(=O)NC3=O)C6=O)CC4)cc2F)N1CC(F)F (stereo partly shown) [Compound B243] | C (“C”: >100 nM)
C[C@@H]1Cc2c([nH]c3ccccc23)[C@@H](c2c(F)cc(-c3cnc(C(=O)N4CCC(N5Cc6cc7c(cc6C5)C(=O)N(C5CCC(=O)NC5=O)C7=O)CC4)nc3)cc2F)N1CC(F)F (stereo partly shown) [Compound B86] | B (“B”: 10-100 nM)
C[C@@H]1Cc2c([nH]c3ccccc23)[C@@H](c2c(F)cc(C3CCC(C(=O)N4CC(CN5Cc6cc7c(cc6C5)C(=O)N(C5CCC(=O)NC5=O)C7=O)C4)CC3)cc2F)N1CC(F)F (stereo partly shown) [Compound B81] | A (“A”: <10 nM)
C[C@@H]1Cc2c([nH]c3ccccc23)[C@@H](c2cnc(N3CCC(CN4CCC(N5Cc6cc7c(cc6C5)C(=O)N(C5CCC(=O)NC5=O)C7=O)CC4)CC3)nc2)N1CC(F)F (stereo partly shown) [Compound B223] | B (“B”: 10-100 nM)

q: Please look up its Traditional Western Degradation Potency: C[C@@H]1Cc2c([nH]c3ccccc23)[C@@H](c2c(F)cc(C3CCN(C(=O)C4CCC(N5Cc6cc7c(cc6C5)C(=O)N(C5CCC(=O)NC5=O)C7=O)CC4)CC3)cc2F)N1CC(F)F (stereo partly shown) [Compound B94]
a: B (“B”: 10-100 nM)

q: Please look up its Traditional Western Degradation Potency: C[C@@H]1Cc2c([nH]c3ccccc23)[C@@H](c2c(F)cc(N3CC(C(=O)N4CC(CN5Cc6cc7c(cc6C5)C(=O)N(C5CCC(=O)NC5=O)C7=O)C4)C3)cc2F)N1CC(F)F (stereo partly shown) [Compound B203]
a: B (“B”: 10-100 nM)

q: Please look up its Traditional Western Degradation Potency: C[C@@H]1Cc2c([nH]c3ccccc23)[C@@H](c2c(F)cc(N3CCC(N4CCC(CN5Cc6cc7c(cc6C5)C(=O)N(C5CCC(=O)NC5=O)C7=O)CC4)C3)cc2F)N1CC(F)F (stereo partly shown) [Compound B64]
a: C (“C”: >100 nM)

q: Please look up its Traditional Western Degradation Potency: C[C@@H]1Cc2c([nH]c3ccccc23)[C@@H](c2cnc(N3CCC4(CCN(C(=O)CN5Cc6cc7c(cc6C5)C(=O)N(C5CCC(=O)NC5=O)C7=O)CC4)CC3)nc2)N1CC(F)F (stereo partly shown) [Compound B220]
a: A (“A”: <10 nM)

q: Please look up its Traditional Western Degradation Potency: C[C@@H]1Cc2c([nH]c3ccccc23)[C@@H](c2c(F)cc(N3CCC(N4CC(C(=O)N5Cc6cc7c(cc6C5)C(=O)N(C5CCC(=O)NC5=O)C7)C4)CC3)cc2F)N1CC(F)F (stereo partly shown) [Compound B60]
a: B (“B”: 10-100 nM)

---

- test: Cell growth assay (WST-8) (Compounds B1-B278)
- Format: cell-based
- assayContext: 96 h; T47D cell line; WST-8, 4 days; read-out: Cell Growth Inhibition in T47D cell line IC50
pIC50: −log10 of the molar value.
metricName: pIC50

Known pIC50 results, listed for orientation:
C[C@@H]1Cc2c([nH]c3ccccc23)[C@@H](c2c(F)cc(C3CCN(C(=O)CN4CCN5c6cc7c(cc6OC[C@@H]5C4)C(=O)N(C4CCC(=O)NC4=O)C7)CC3)cc2F)N1CC(F)F (stereo partly drawn) | > 9.00
C[C@@H]1Cc2c([nH]c3ccccc23)[C@@H](c2cnc(N3CC4(C3)OCC(CN3CCN5c6cc7c(cc6OC[C@@H]5C3)C(=O)N(C3CCC(=O)NC3=O)C7)CO4)nc2)N1CC(F)(F)CO (stereo partly drawn) | < 8.00

Could you now consider this next compound?
q: Please look up its pIC50: C[C@@H]1Cc2c([nH]c3ccccc23)[C@@H](c2ccc(N3CCC4(CC3)CC(CN3CCN5c6ccc7c(c6OC[C@H]5C3)CN(C3CCC(=O)NC3=O)C7=O)CO4)cn2)N1CC(F)(F)F (stereo partly drawn)
a: 8.00 to 9.00

---

Reported DC50 values follow for various compounds
- tgt: ER in T47D cells (Homo sapiens (Human))
- test: In-cell western (ICW) ER degradation assay in T47D cells (Compounds A1-A70)
- Format: cell-based
- assayContext: ER degradation, T47D cells, 16 hrs treatment, 0.02 to 300 nM

Known DC50 results, listed for orientation:
COc1cc(N2CCC(CN3CCN4c5ccc6c(c5OC[C@H]4C3)CN([C@H]3CCC(=O)NC3=O)C6=O)CC2)ccc1[C@@H]1c2[nH]c3ccccc3c2C[C@@H](C)N1CC(C)(C)F | < 1 nM
C[C@H]1Cc2c([nH]c3ccccc23)[C@H](c2ccc(N3CCC(CN4CCN5c6ccc7c(c6OC[C@@H]5C4)CN([C@@H]4CCC(=O)NC4=O)C7=O)CC3)cn2)N1CC(F)(F)F | 10 to 100 nM

Could you now consider this next compound?
q: Provide the documented DC50 with ER in T47D cells (Homo sapiens (Human)) as the system for COc1cc(N2CCC(CN3CCN(c4ccc(C5CCC(=O)NC5=O)cc4)CC3)CC2)ccc1[C@@H]1c2[nH]c3ccccc3c2C[C@@H](C)N1CC(F)F (stereo partly drawn)
a: < 1 nM
